Reported % Inhibition values for the following binders.
- TARGET_SYSTEM: T1, human ASGR-1 (human, UniProt P07306 1-291)
- T1 construct: Stably expressed on CHO-S cells (CHO-S:huASGR-1); The method text says human or mouse ASGR-1 cells were used; also called huASGR-1; hASGR-1
- T1 sequence: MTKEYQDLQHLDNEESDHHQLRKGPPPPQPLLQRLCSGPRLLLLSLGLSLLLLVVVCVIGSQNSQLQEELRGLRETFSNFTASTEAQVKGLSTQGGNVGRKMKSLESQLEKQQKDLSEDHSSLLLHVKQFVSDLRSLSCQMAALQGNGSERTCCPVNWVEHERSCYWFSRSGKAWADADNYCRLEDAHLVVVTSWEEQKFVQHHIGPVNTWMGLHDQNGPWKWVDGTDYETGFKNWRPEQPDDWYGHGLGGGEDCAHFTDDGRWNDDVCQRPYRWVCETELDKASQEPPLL
- PROTOCOL_DETAILS: FACS ligand blocking on CHO-S ASGR-1 cells; competitor biotinylated asialofetuin
- Protocol: All ASGR-1 antibodies that bound either human or mouse ASGR-1 stable CHO—S cells were then tested for ligand blocking using both a protein ligand and a synthetic sugar ligand. […] The plates were read and processed similarly to the cell binding method except the signal now represents an inhibition curve and typically decreases a function of increasing antibody concentration. […]
Just the number in %, nothing appended.

Examples with answers:
| BINDER | OBSERVED_RESULT |
| --- | --- |
| 184E7 (antibody, V domains shown) VH: QVQLVQSGAEVKTPGASVKVSCRASGYTFTSYNMHWVRQVPGQGLEWMGWINPNNGGSNYTQKFQGRVTMTRDTSISTAYMELSRLRSDDTAVYYCARKFGDWGQGTLVTVSS VL: DIQMTQSPSSRSASIGERVTITCRASQGISNYLAWIQQKPGTAPKSLIYAASSLQSGVSSRFSGSGFGTDFTITISSVQREDFATYYCQQYNGYPFTFGHGTKVDIK | 99 |
| 190F8 (antibody, V domains shown) VH: QVQLVESGGGVVQPGRSLRLSCAASGFTFSTYGMHWVRQAPGKGLEWVAVIWYDGSNKNYADSVKGRFTISRDNSKNTLYLQMNSLRAEDTAVYYCARDQGVGYDGLDVWGQGTTVTVSS VL: DIQMTQSPSSLSASVGDRVTITCRTSQGIGNYLAWFQQKPGKAPKSLLYKASSLQSGVPSKFSGSGSGTDFTLTISSLQPEDFATYYCQQYMTYPLTFGGGTKVEIK | 98 |
| 176H4 (antibody, V domains shown) VH: QVQLVESGGGVVQPGRSLRLSCAASGFTFSSYGMHWVRQAPGKGLEWVAIIWYDGSYKYYADSVKGRFTISRDNSKNTLYLQMSSLRAEDTAVYYCARDAHDFWSGYFAYWGQGALVTVSS VL: DIVMTQTPLSLSVTPGQPASISCKSSQSLLHGDGKTYLYWYLQKPGQPPQLLIYEVSNRFSGVPDRFSGSGSGTDFTLKISRVEAEDVGIYYCMQSIQIPWTFGQGTRVEIK | 99 |
| 48B12 (antibody, V domains shown) VH: EVQLLESGGGLVQPGGSLRLSCAASGFTFSSYAMNWVRQAPGKGLEWVSAISGRGGNTFYADSVKGRFTISRDNSKNTLYLQMNSLRAEDTAVYYCAKRETYNWNYEGFDYWGQGTLVTVSS VL: SYELTQPPSVSVSPGQTARITCSGDALPKKYAYWYQQKSGQAPVLVIYEDSKRPSGIPERFSGSSSGTMATLTISGAQVEDEADYYCNSTDSSGNHVVFGGGTKLTVL | 99 |

In the following, a different binder is considered.
Entry under review: 4A2 (antibody, V domains shown) VH: QVQLVQSGTEVKKPGASVKVSCKASGYTFTNYDINWVRQATGQGLEWMGWMHPNSGNTGYAQKFQGRVTLTRNTSISTAYMELSSLRSEDTAVYYCASSSGWYYFDYWGQGTLVTVSS VL: DIVMTQSPDSLAVSLGERATINCKSSQSILHSSNNNNYLAWFQQKPGQPPKLLLYWASTRESGVPDRFSGSGSGTDFTLTISSLQPEDVAVYYCQQYYNTPVTFGPGTKVGIK . Reported % Inhibition? 99

Measured values drawn from patent US20190248902A1 for this set.
